Biological target: trypsin
Assay: TRF, 2.4 ug/mL Fab on trypsin
readout kind: TRF signal
Number, no unit, nothing else.

Output measured TRF signal for this item: KB_C08 Fab (Fab, V domains shown) VH: EVQLVESGGGLVRPGGSLRLSCAASGFTFSSYAMSWVRQAPGKGLEWVSAISGSGGSTYYADSVKGRFTISRDNTKNSLYLQMTSLRADDTAFYYCVKDFGPGYGTGWFDYWGPGTLVTVSS VL: AVNWYQQLPGKAPKLLIYAAAVCPRILMRCKQDSDCLAGCVCGPNGFCGTRSGIPERFSGSKSGTSAFLAISGLRSEDEADYYCAAWDDSLSGVVFGGGTKLTVLG
131000

Output measured TRF signal for this item: KB_C07 Fab (Fab, V domains shown) VH: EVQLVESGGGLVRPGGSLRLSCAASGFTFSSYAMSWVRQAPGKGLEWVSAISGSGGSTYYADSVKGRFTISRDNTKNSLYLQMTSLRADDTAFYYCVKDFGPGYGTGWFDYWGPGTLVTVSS VL: AVNWYQQLPGKAPKLLIYAAVGCPRILMRCKQDSDCLAGCVCGPNGFCGSASGVSDRFSGSKSGTSASLAISGLRSEDEADYYCASWDDSLRGYVFGTGTKVTVLG
247000

Output measured TRF signal for this item: KB_A10 Fab (Fab, V domains shown) VH: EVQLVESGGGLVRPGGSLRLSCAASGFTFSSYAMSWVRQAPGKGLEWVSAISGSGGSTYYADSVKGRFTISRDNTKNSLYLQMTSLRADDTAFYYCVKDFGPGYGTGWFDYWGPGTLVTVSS VL: AVNWYQQLPGKAPKLLIYAAGGCPRILMRCKQDSDCLAGCVCGPNGFCGSNSGVPDRFSGSKSGNTASLTISGLQSEDEADYYCAAWDDSLSGVVFGGGTQLTVLG
71900
